Entries and their growth values follow.
# Test system: Escherichia coli IAI1
# test_description: growth (OD595) fold change vs plate DMSO controls (fold change (ratio)); higher = more growth
# study_conditions: incubation time: 27 h, anaerobic, 37 °C
// no unit, no text: just the number

molecule	target_under_test	growth
CN(C)c1nc(N(C)C)nc(N(C)C)n1 [Altretamine] (20 µM)	Escherichia coli IAI1	1.05
CC(=O)Oc1ccc(C(=C2CCCCC2)c2ccc(OC(C)=O)cc2)cc1 [Cyclofenil] (20 µM)	Escherichia coli IAI1	1.04
NC(=O)C1CO1 (centres undefined) [Glycidamide] (20 µM)	Escherichia coli IAI1	0.992

--- query ---
Lookup: // query growth value for entry CC(C)Nc1cccnc1N1CCN(C(=O)c2cc3cc(NS(C)(=O)=O)ccc3[nH]2)CC1 [Delavirdine] (20 µM)
Found: 1.01
